Molecular target: T1, human IL2Rβ Fc fusion protein (human, UniProt P14784 27-239)
T1 construct: also called ILR2β; CD122; not shown: Fc part
T1 sequence (looked up): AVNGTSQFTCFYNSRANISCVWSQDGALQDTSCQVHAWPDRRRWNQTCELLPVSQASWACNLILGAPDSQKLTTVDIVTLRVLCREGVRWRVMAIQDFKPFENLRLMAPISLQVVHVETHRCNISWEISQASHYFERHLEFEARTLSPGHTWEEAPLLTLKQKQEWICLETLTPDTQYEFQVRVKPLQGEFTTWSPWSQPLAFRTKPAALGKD
Experiment: ELISA on coated receptor-Fc, anti-His detection, single point 10 µM
Some binders, each annotated with its measured Average OD (450 nm).
The response must be a number in OD450 with no trailing unit.

# annotated cases, reported Average OD (450 nm) shown
Exam item: Please report the recorded Average OD (450 nm) for EP575, mammalian cell-produced (ligand, also called 2021EP16-D09) APASSSTKKTQLQLEHLLLDLQMILNGINNYKNPLLTDMLTRKFYMPKKATELKHLQCLEEELKPLEEVLNLAQSKNFHLRNKGILGDISNIVLALKGSETTFMCEYADETATIVEFLNRWITFSQSIISTLT .
Marked response: 0.093

Exam item: Please report the recorded Average OD (450 nm) for EP662, EP575 back-mutation clone (ligand, Mammalian-produced, His-tagged) APASSSTKKTQLQLEHLLLDLQMILNGINNYKNPLLTDMLTRKFYMPKKATELKHLQCLEEELKPLEEVLNLAQSKNFHLRPKGLISDINNIVLALKGSETTFMCEYADETATIVEFLNRWITFSQSIISTLT .
Marked response: 0.083

Exam item: Please report the recorded Average OD (450 nm) for EP665, EP575 back-mutation clone (ligand, Mammalian-produced, His-tagged) APASSSTKKTQLQLEHLLLDLQMILNGINNYKNPLLTDMLTRKFYMPKKATELKHLQCLEEELKPLEEVLNLAQSKNFHLRNRGLISDINNIVLALKGSETTFMCEYADETATIVEFLNRWITFSQSIISTLT .
Marked response: 0.096

Now for a further binder.
Exam item: Please report the recorded Average OD (450 nm) for EP669, EP575 back-mutation clone (ligand, Mammalian-produced, His-tagged) APASSSTKKTQLQLEHLLLDLQMILNGINNYKNPLLTDMLTRKFYMPKKATELKHLQCLEEELKPLEEVLNLAQSKNFHLRPKGLISDISNIVLALKGSETTFMCEYADETATIVEFLNRWITFSQSIISTLT .
Marked response: 0.082
